Values compiled from patent US20260258115A1.

molecular target: Respiratory Syncytial Virus fusion glycoprotein (RSV F) on RSV-A2 virus (Respiratory Syncytial Virus subtype A (RSV-A2)); experiment: cell-based or functional assay
endpointName: Neutralization IC50 (RSV subtype A) (µg/mL)
Numbers only here, please. The scale is µg/mL.

# input Consider the binder ADI-41173 (antibody, V domains shown) VH: QVQLVQSGAEMKKPGSSAKVSCKASGGTLSSYAINWVRQAPGQGLEWMGGIIPIFGTTKYAPKFQDRVTITVDESTSTAYMELSSLRSEDTAVYYCSRESSTWDVAHYFDYWGQGTLVTVSS VL: DIVMTQTPSAISASVGDRVTITCRASQGISNYLAWVQQKPGKVPKRLIYGASSLQSGVPSRFSGSGSGTEFTLTISSLQPEDFATYYCLQHNSYPYTFGQGTKVEIK and give its measured Neutralization IC50 (RSV subtype A).
# output 0.08

# input Further, for ADI-41157 (antibody, V domains shown) VH: EVQLVESGPGLVKPSETLSLTCTVSGGSISTYYWSWIRQPPGKGLEWIGYIYYTGSTNYNPSLKSRVTISLDTSKNQFSLKLSSVSAADTAFYYCARSPPVPGTRSWFDPWGQGTLVTVSS VL: SPGLTQPQSAFGTPGQRVTISCFGSSSNIGRNHIYWYQQVPGTAPKLLIYRNNQRPSGVPDRFFGSKFGTSASLAISGVRSEDEADYFCAAWDDSLSGPVFGGGTKLTVL ?
# output 0.22
